- study target: ABCB1 (Homo sapiens, UniProt P08183)
- Sequence (P08183 whole entry): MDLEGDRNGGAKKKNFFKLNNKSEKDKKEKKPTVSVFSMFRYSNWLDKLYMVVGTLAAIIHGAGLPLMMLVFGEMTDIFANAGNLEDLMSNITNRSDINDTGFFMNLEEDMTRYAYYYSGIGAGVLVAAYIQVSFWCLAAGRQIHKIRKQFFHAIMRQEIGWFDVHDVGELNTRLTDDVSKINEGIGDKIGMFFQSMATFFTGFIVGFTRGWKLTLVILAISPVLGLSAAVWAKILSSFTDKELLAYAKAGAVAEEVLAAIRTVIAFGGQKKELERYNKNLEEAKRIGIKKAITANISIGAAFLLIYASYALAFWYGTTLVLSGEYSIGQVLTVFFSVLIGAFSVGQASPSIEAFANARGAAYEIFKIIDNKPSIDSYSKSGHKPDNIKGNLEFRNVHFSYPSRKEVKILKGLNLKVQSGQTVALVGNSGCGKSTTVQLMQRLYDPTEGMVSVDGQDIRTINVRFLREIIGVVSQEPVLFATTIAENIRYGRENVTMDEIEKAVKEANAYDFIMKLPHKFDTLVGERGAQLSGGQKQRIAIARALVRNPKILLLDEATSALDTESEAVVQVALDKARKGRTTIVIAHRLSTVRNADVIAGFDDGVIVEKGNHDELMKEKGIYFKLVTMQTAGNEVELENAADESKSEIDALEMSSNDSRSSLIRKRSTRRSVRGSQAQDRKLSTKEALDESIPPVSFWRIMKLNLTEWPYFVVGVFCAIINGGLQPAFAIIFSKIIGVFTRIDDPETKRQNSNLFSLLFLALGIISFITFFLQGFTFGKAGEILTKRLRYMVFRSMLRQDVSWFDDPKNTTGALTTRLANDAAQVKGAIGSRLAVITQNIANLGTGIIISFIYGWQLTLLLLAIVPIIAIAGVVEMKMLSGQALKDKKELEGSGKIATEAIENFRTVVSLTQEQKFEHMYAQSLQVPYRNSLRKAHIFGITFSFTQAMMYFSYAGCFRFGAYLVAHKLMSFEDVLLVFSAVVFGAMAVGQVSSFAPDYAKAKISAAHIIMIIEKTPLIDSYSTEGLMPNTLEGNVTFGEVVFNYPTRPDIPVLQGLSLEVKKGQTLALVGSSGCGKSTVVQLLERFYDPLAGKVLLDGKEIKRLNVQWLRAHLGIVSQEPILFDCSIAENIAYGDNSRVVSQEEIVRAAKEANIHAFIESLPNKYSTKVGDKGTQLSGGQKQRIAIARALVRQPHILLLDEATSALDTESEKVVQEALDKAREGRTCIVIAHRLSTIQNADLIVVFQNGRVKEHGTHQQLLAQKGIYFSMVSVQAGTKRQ
pIC50: −log10 of the molar value.
recorded metric: pIC50

INSERT INTO measurements (item_smiles, recorded_metric, result_value) VALUES
  ('CCn1c(=O)c(-c2ccc(Cl)cc2Cl)cc2cnc(Nc3ccc(N4CCNCC4)c(F)c3)nc21', 'pIC50', 7.70);
